Where do these numbers come from? They come from patent US20140051645A1.

Biological target: T1, human CTLA-4-Fc (Chimerigen) (human, UniProt P16410 36-161, limits assumed)
T1 construct: Bought fusion protein; also called hCTLA4-Fc; not shown: It was captured by an anti-human IgG-Fc antibody
T1 sequence (looked up): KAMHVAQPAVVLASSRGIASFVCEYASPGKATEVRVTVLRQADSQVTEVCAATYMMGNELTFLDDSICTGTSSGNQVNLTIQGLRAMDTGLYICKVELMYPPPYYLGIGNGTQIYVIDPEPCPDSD
Experiment: SPR, Biacore T100, 25 C; CTLA4-Fc captured on anti-human IgG-Fc, mutein as analyte; 1:1 Langmuir fit
We begin with a simple list: items and their reported koff.
The answer is to be given in s⁻¹; state only the numeric part.

QUERY: Given the entry hNGALM2 (designed binder) QDSTSDLIPAPPLSKVPLQQNFQDNQFHGKWYVVGLAGNRLLRDDQHPMDMYATIYELKGDKSYNVTSVISSHKKCLYPIATFVPGSQPGEFTLGNIKSYGDKWSYLVRVVSTDYNQYAVVFFKHADTNYESFSITIYGRTKELASELKENFIRFSKSLGLPENHIVFPVPIDQCIDGSAWSHPQFEK , report its measured koff.
RESULT: 0.000388

QUERY: Given the entry hNGALM4 (designed binder) QDSTSDLIPAPPLSKVPLQQNFQDNQFHGKWYVVGLAGNRILRDDQHPMPMYATIYELKGDKSYNVTSVISSHKKCLYPIATFVPGSQPGEFTLGNIKSYGDKWSYLVRVVSTDYNQYAVVFFKHADSNYESFSITIYGRTKELASELKENFIRFSKSLGLPENHIVFPVPIDQCIDG , report its measured koff.
RESULT: 0.000186
